Target: PI3K beta (Homo sapiens)
Construct: for the full-length p110-b subunit are generated and fused by overlapping PCR; His tag (C); made in house; host or cells: baculovirus BV949; Tn5 (Trichoplusia ni) or TiniPro insect cells
Sequence (P42338 with tags, fused parts or gaps limits assumed): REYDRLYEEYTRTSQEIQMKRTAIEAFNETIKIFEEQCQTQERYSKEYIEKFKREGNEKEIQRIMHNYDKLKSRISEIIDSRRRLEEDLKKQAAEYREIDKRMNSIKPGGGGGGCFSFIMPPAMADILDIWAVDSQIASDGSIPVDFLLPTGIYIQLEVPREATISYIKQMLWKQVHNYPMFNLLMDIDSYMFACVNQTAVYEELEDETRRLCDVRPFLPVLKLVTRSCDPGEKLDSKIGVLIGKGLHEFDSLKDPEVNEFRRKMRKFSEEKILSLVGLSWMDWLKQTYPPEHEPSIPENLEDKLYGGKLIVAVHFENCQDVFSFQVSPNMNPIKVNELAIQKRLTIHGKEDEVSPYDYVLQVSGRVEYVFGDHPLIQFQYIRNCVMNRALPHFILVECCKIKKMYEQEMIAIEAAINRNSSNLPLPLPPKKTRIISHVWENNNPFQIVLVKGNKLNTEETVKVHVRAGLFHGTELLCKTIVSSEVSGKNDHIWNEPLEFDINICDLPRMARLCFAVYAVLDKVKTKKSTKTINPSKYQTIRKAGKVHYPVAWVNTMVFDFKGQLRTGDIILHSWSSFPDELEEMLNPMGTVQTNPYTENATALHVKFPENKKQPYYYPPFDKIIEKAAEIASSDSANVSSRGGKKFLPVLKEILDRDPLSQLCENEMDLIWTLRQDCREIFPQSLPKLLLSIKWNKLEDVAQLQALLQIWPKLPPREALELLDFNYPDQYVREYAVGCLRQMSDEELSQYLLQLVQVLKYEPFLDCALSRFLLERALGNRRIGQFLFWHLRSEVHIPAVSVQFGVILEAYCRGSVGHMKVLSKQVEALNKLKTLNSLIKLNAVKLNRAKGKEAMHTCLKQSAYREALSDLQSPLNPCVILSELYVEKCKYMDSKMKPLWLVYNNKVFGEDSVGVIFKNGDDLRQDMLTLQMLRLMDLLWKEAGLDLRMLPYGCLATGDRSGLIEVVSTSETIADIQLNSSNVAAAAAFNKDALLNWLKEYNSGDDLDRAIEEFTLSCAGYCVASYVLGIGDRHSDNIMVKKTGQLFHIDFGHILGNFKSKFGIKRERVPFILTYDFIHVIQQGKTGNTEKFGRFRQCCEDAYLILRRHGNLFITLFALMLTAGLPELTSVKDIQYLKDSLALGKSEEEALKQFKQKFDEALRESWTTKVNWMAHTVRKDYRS
Assay: PI3K beta kinase assay (Kinase-Glo luminescence)
Format: biochemical
Settings: read-out: EPK_PI3Kbeta/IC50
pIC50: −log10 of the molar value.
measurement_label: pIC50

Illustrative cases are given below, each with its answer.
>  <compound>
CNc1ncc(-c2ccc3ncc4c(c3c2)n(-c2ccc(C)nc2C)c(=O)n4C)cn1

>  <pIC50>
6.55

$$$$
>  <compound>
COc1nc(N2CCNCC2)ccc1-n1c(=O)n(C)c2cnc3ccc(-c4cnc(N(C)C)nc4)cc3c21

>  <pIC50>
6.85

$$$$
>  <compound>
Cc1ccc(-n2c(=O)n(C)c3cnc4ccc(-c5cncc(NC(C)C)c5)cc4c32)c(C)n1

>  <pIC50>
7.28

$$$$
>  <compound>
CNc1ncc(-c2ccc3ncc4c(c3c2)n(-c2ccc(N3CC[C@H](O)C3)nc2C)c(=O)n4C)cc1C(F)(F)F

>  <pIC50>
7.43

$$$$
>  <compound>
CNc1ncc(-c2ccc3ncc4c(c3c2)n(-c2ccc(NC(=O)COC)nc2C)c(=O)n4C)cn1

>  <pIC50>
5.56

$$$$
>  <compound>
CCNc1cc(-c2ccc3ncc4c(c3c2)n(-c2ccc(C)nc2C)c(=O)n4C)cnc1C

>  <pIC50>
7.30

$$$$

1: Cc1nc(N2CCC2)ccc1-n1c(=O)n(C)c2cnc3ccc(-c4cncc(C(C)(C)O)c4)cc3c21
2: Cc1nc(F)ccc1-n1c(=O)n(C)c2cnc3ccc(-c4cncc(N5CCC5)c4)cc3c21
stdin: Form: Entry with minimum pIC50 (choose one): 1 / 2 // caller expects the label of the chosen entry
stdout: 2
